These entries and their values trace back to patent US20140178935A1.

The reader will find reported kon values listed item by item below.
test target: T1, recombinant human HGF (R&D Systems, Catalog No. 294-HGN-025) (human, UniProt P14210 32-728)
T1 construct: Mature HGF is a disulfide-linked heterodimer of alpha and beta chain cut from one precursor; also called rhHGF (R&D Systems); rhHGF
T1 sequence (P14210 32-728 limits assumed): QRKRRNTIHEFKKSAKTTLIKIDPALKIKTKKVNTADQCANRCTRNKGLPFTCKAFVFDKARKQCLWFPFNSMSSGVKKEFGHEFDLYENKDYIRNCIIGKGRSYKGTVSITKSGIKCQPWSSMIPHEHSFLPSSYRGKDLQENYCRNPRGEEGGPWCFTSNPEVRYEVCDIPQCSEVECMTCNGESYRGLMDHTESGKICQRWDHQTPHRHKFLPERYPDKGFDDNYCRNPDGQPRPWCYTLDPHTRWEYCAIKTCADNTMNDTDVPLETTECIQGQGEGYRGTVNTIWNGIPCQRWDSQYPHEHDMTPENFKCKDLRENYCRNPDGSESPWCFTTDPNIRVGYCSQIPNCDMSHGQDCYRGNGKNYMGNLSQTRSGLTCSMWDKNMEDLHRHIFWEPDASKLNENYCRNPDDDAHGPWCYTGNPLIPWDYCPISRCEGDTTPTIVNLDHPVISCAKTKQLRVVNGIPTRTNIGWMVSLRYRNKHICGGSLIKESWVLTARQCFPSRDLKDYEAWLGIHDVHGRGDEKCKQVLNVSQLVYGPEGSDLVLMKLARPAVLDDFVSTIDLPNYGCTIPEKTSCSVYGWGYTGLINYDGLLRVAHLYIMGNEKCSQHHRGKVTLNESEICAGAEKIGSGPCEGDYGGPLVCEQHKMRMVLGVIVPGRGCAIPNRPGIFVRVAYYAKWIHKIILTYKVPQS
assay name: SPR (BIAcore T100), antibody captured on mouse anti-human immunoglobulin CM4 chip, HGF 1.88, 3.75 and 7.5 nM injected, 25 C
Enter your answer as a number in M⁻¹ s⁻¹; do not include the unit.

Request: Return the recorded kon value; entry: Kappa Chimeric 2B8 / Heavy Hu2B8_Hv1-f.1 (antibody, human IgG1, kappa, V domains shown, also called Hu2B8 Hv1-f.1 + IgG1 Constant heavy chain with Chimeric 2B8 Kappa light chain) VH: EVQLVQSGAEVKKPGATVKISCKVSGYTFTTYWMHWVQQAPGKGLEWMGEINPTNGHTNYNEKFQGRVTITADTSTDTAYMELSSLRSEDTAVYYCATNYVGSIFDYWGQGTLVTVSS VL: NIVMTQSPKSMSMSVGERVTLSCKASENVVSYVSWYQQKPAQSPKLLIYGASNRNTGVPDRFTGSGSATDFTLTISSVRAEDLADYHCGQSYNYPYTFGGGTRLEIKR
Result: 2.4e+06

Request: Provide one value: measured kon of Kappa Hu2B8_Kv3-15.1 / Heavy Chimeric 2B8 (antibody, human IgG1, kappa, V domains shown, also called Chimeric 2B8 IgG1 heavy chain with Hu2B8 Kv3-15.1 + Kappa Constant light chain) VH: QVQLQQPGAELVKPGTSVKLSCKASGYTFTTYWMHWVNQRPGQGLEWIGEINPTNGHTNYNEKFKSKATLTVDKSSSTAYMQLSSLTSEDSAVYYCARNYVGSIFDYWGQGTTLTVSS VL: EIVMTQSPATLSVSPGERATLSCKASENVVSYVSWYQQKPGQAPRLLIYGASNRNTGIPARFSGSGSGTEFTLTISSLQSEDFAVYYCGQSYNYPYTFGQGTKLEIKR
Result: 3.1e+06

Let us examine a further case.
Request: Recall and state the measured kon for Kappa Hu2B8_Kv3-15.1 / Heavy Hu2B8_Hv5-a.1 (antibody, human IgG1, kappa, V domains shown, also called Hu2B8 Hv5-a.1 + IgG1 Constant heavy chain with Hu2B8 Kv3-15.1 + Kappa Constant light chain) VH: EVQLVQSGAEVKKPGESLRISCKGSGYSFTTYWMHWVRQMPGKGLEWMGEINPTNGHTNYNPSFQGHVTISADKSISTAYLQWSSLKASDTAMYYCARNYVGSIFDYWGQGTLVTVSS VL: EIVMTQSPATLSVSPGERATLSCKASENVVSYVSWYQQKPGQAPRLLIYGASNRNTGIPARFSGSGSGTEFTLTISSLQSEDFAVYYCGQSYNYPYTFGQGTKLEIKR .
Result: 2.2e+06
